Below, each of the molecules is paired with its reported AC50 value.
System: S. cerevisiae GRE-lacZ reporter, Hsp90 function, luminescence
Assay: Hsp90 function inhibitors in yeast, dose response, S. cerevisiae, luminescence, dry powder, set 2 (AID 504390)

Smiles entry: COC(=O)Cn1nc(C(C)(C)C)c2ccccc21
System under test: S. cerevisiae GRE-lacZ reporter, Hsp90 function, luminescence
AC50: 20.7 µM
//
Smiles entry: COC(=O)Cn1nc(C2CCCCC2)c2ccccc21
System under test: S. cerevisiae GRE-lacZ reporter, Hsp90 function, luminescence
AC50: 3.56 µM
//
Smiles entry: COC(=O)Cn1nc(-c2cccc(C)c2)c2ccccc21
System under test: S. cerevisiae GRE-lacZ reporter, Hsp90 function, luminescence
AC50: 3.59 µM
//
Smiles entry: COC(=O)Cn1nc(-c2ccccc2)c2cccnc21
System under test: S. cerevisiae GRE-lacZ reporter, Hsp90 function, luminescence
AC50: 25.8 µM
//
Smiles entry: O=C(Cn1c2ccccc2c2nc3n(c(=O)c21)CCS3)N1CCCCC1
System under test: S. cerevisiae GRE-lacZ reporter, Hsp90 function, luminescence
AC50: 26.1 µM
//
Smiles entry: COC(=O)Cn1nc(-c2cccc(OC)c2)c2ccccc21
System under test: S. cerevisiae GRE-lacZ reporter, Hsp90 function, luminescence
AC50: 4.18 µM
